# IC50 annotations
ASSAY NOTES: Inhibition of Enterovirus D68 US/KY/14-18953 2A protease expressed in Escherichia coli BL21(DE3) using Dabcyl-KIRIVNT/GPGEGGE-Edans as substrate incubated for 2 hrs by FRET assay
MEASURE: IC50 (nM)

[
  {
    "COMPOUND": "CCC(C)[C@H](NC(=O)[C@@H]1[C@H]2CCC[C@H]2CN1C(=O)[C@@H](NC(=O)CC12CC3CC(CC(C3)C1)C2)C(C)(C)C)C(=O)C(=O)NC1CC1 (stereo partly drawn)",
    "MEASURE": "IC50",
    "UNITS TEXT": "nM",
    "BOUND OPERATOR": "=",
    "MEAS VALUE": 150
  },
  {
    "COMPOUND": "CCC[C@H](NC(=O)[C@@H]1[C@H]2CCC[C@H]2CN1C(=O)[C@@H](NC(=O)CC12CC3CC(CC(C3)C1)C2)C(C)(C)C)C(=O)C(=O)NC1CC1",
    "MEASURE": "IC50",
    "UNITS TEXT": "nM",
    "BOUND OPERATOR": "=",
    "MEAS VALUE": 80
  },
  {
    "COMPOUND": "CC(C)(C)[C@H](NC(=O)CC12CC3CC(CC(C3)C1)C2)C(=O)N1C[C@@H]2CCC[C@@H]2[C@H]1C(=O)N[C@@H](Cc1ccc(F)cc1)C(=O)c1nc2ccccc2s1",
    "MEASURE": "IC50",
    "UNITS TEXT": "nM",
    "BOUND OPERATOR": ">",
    "MEAS VALUE": 20000
  }
]

---

System: enterovirus D68
ASSAY NOTES: Antiviral activity against enterovirus D68 US/MO/14-18947 infected in human RD cells assessed as reduction in virus induced cytopathic effect by neutral red staining based CPE assay
Format: functional, organism-based
CONDITION DETAILS: Enterovirus D, US/MO/14-18947, RD
# Lookup of reported EC50 keyed by entry
MEASURE: EC50

[
  {
    "STRUCTURE": "CC(C)(C)[C@H](NC(=O)[C@@H]1[C@H]2CCC[C@H]2CN1C(=O)[C@@H](NC(=O)CC12CC3CC(CC(C3)C1)C2)C(C)(C)C)C(=O)C(=O)NC1CC1",
    "MEASURE": "EC50",
    "MEAS VALUE": "> 30 µM"
  },
  {
    "STRUCTURE": "CC(C)(C)[C@H](NC(=O)CC12CC3CC(CC(C3)C1)C2)C(=O)N1C[C@@H]2CCC[C@@H]2[C@H]1C(=O)N[C@@H](Cc1ccc(F)cc1)C(=O)c1nc2ccccc2s1",
    "MEASURE": "EC50",
    "MEAS VALUE": "> 30 µM"
  },
  {
    "STRUCTURE": "CCC[C@H](NC(=O)[C@@H](NC(=O)[C@@H](NC(=O)CC12CC3CC(CC(C3)C1)C2)C(C)(C)C)C1CCCCC1)C(=O)C(=O)NC1CC1",
    "MEASURE": "EC50",
    "MEAS VALUE": "> 1.84 µM"
  }
]
